The measurements presented in this section are drawn from ChEMBL document CHEMBL2146426.

- testProtocol: AUC (0 to infinity) in Sprague-Dawley rat at 10 mg/kg, iv
- Assay type: ADME, organism-based
- Parameters: time infinity, dose 10 mg/kg, route intravenous
- testContext: plasma
assayReadout: AUC(0-inf) (ng·h/mL)
Answers are plain numbers, in ng·h/mL.

Please state, for each entry, its recorded AUC(0-inf).
1. O=[N+]([O-])c1ccc(C2=NOC(c3ccc(N4CCOCC4)cc3)C2)o1 (centres undefined)
2. CN1CCN(c2ccc(C3CC(c4ccc([N+](=O)[O-])o4)=NO3)cc2)C(=O)C1 (centres undefined)
3. O=[N+]([O-])c1ccc(C2=NOC(c3ccc(N4CCOCC4)nc3)C2)o1 (centres undefined)

A.
1. 1630
2. 960
3. 3360

// AUC(0-inf) lookup, compound = O=[N+]([O-])c1ccc(C2=NOC(c3ccc(N4CCCCC4)cc3)C2)o1 (centres undefined) , result: 2750
